// IC50 lookup, one value per entry
- Tested on: RAW264.7
- EXPERIMENT SUMMARY: Antiinflammatory activity in mouse RAW264.7 cells assessed as inhibition of LPS-induced NO production treated for 2 hrs before LPS challenge measured after 20 hrs by Griess method
- Format: functional, cell-based
MEASURED METRIC: IC50 (mg/L)

molecule_smiles=[N-]=[N+]=Nc1ccc(C(=O)NCCCCCCCCCCCCSC(=O)CC2CC(=O)NC(=O)C2)cc1 units_symbol=mg/L qualifier== measured_number=4.5
molecule_smiles=O=C(CCCC[C@@H]1SC[C@@H]2NC(=O)N[C@@H]21)NCCCCCCCCCCCCSC(=O)CC1CC(=O)NC(=O)C1 units_symbol=mg/L qualifier== measured_number=5
molecule_smiles=O=C(CCCC[C@@H]1SC[C@@H]2NC(=O)N[C@@H]21)NCCCCCCCCCCCCNC(=O)CC1CC(=O)NC(=O)C1 units_symbol=mg/L qualifier=> measured_number=30
molecule_smiles=O=C(CCCC[C@@H]1SC[C@@H]2NC(=O)N[C@@H]21)NCCSC(=O)CC1CC(=O)NC(=O)C1 units_symbol=mg/L qualifier=> measured_number=30
